- targetOrSystem: PPAR-delta ligand binding domain fused to GAL4 DNA binding domain (UniProt Q03181)
- assayProtocol: Transient transfection transactivation assay in CV-1 cells, PPAR-delta (GAL4 chimera, luciferase reporter)
- conditionsUsed: 20-24 hours
valueType: EC50

Some solved cases for reference:
>>> df
                                   compound  measuredvalue
0  C[C@@H]1CN(Cc2ccc(OC(F)(F)F)c(Cl)c2)C[C@H](C)N1S(=O)(=O)c1cccc2c1CC(C(=O)O)C2 (some centres unmarked) [Example 4]         < 5 µM
1  O=C(O)C1Cc2cccc(S(=O)(=O)N3CCN(S(=O)(=O)c4ccc(OC(F)(F)F)cc4)CC3)c2C1 (centres unmarked) [Example 10]    5 to 100 µM
2  C[C@@H]1CN(CCc2ccc(C(F)(F)F)cc2)C[C@H](C)N1S(=O)(=O)c1cccc2c1CC(C(=O)O)C2 (mixture of isomers) [Example 14A]         < 5 µM
3  C[C@@H]1CN(Cc2ccc(SC(F)(F)F)cc2)C[C@H](C)N1S(=O)(=O)c1cccc2c1CC(C(=O)O)C2 (some centres unmarked) [Example 6]         < 5 µM

q: EC50 lookup needed for C[C@@H]1CN(CCc2ccc(Cl)cc2)C[C@H](C)N1S(=O)(=O)c1cccc2c1CC(C(=O)O)C2 (some centres unmarked) [Example 24] , thanks.
a: < 5 µM

q: Would you mind telling me what EC50 value was observed for C[C@@H]1CN(CCc2ccc(Cl)c(Cl)c2)C[C@H](C)N1S(=O)(=O)c1cccc2c1CC(C(=O)O)C2 (some centres unmarked) [Example 27] ?
a: < 5 µM

q: Query: EC50; subject: C[C@@H]1CN(CC(c2ccc(Cl)cc2)c2ccc(Cl)cc2)C[C@H](C)N1S(=O)(=O)c1cccc2c1CC(C(=O)O)C2 (some centres unmarked) [Example 28]
a: > 100 µM

q: Can you look up the measured EC50 of O=C(O)C1Cc2cccc(S(=O)(=O)N3CCN(CCc4ccc(OC(F)(F)F)cc4)CC3)c2C1 (centres unmarked) [Example 15] for me?
a: < 5 µM

q: What EC50 value was documented for this compound, C[C@@H]1CN(CCc2ccc(SC(F)(F)F)cc2)C[C@H](C)N1S(=O)(=O)c1cccc2c1CC(C(=O)O)C2 (some centres unmarked) [Example 23] ?
a: < 5 µM

q: Record request: EC50 value, item C[C@@H]1CN(CCc2ccc(C(F)(F)F)c(F)c2)C[C@H](C)N1S(=O)(=O)c1cccc2c1CC(C(=O)O)C2 (some centres unmarked) [Example 26]
a: < 5 µM

q: Using the record for C[C@@H]1CN(CCc2ccc(OC(F)(F)F)cc2)C[C@H](C)N1S(=O)(=O)c1cccc2c1CC(C(=O)O)C2 (mixture of isomers) [Example 12A] , report its EC50.
a: < 5 µM

q: If you can, please state the reported EC50 value of C[C@@H]1CN(CCCc2ccc(OC(F)(F)F)cc2)C[C@H](C)N1S(=O)(=O)c1cccc2c1CC(C(=O)O)C2 (some centres unmarked) [Example 17] .
a: < 5 µM

q: Give its EC50 value. Item: C[C@@H]1CN(C(=O)Cc2ccc(C(F)(F)F)cc2)C[C@H](C)N1S(=O)(=O)c1cccc2c1CC(C(=O)O)C2 (some centres unmarked) [Example 13]
a: 5 to 100 µM

q: Quick one: EC50 of O=C(O)C1Cc2cccc(S(=O)(=O)N3CCN(C(=O)c4ccc(OC(F)(F)F)cc4)CC3)c2C1 (centres unmarked) [Example 18] ?
a: 5 to 100 µM
